Listing: self-cleavage of selected variants
B1: HDV Ribozyme (parent)
chain: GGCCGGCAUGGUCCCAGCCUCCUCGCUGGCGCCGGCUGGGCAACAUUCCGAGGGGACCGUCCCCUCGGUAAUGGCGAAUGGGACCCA

variants of: B1; test: self-cleavage, relative activity (ratio to wild type); higher = more cleavage; co-transcriptional
OUTCOME MEASURE: self-cleavage

MUT | OUTCOME MEASURE | EXPERIMENTAL RESULT
G1C C18G | self-cleavage | 0
G35A A87U | self-cleavage | 0.391
G17U G76A | self-cleavage | 0.73
U37G C86U | self-cleavage | 0.249
U20C U60G | self-cleavage | 0.199
C57A G67A | self-cleavage | 0.926
U9C U23C | self-cleavage | 1.06
C4G A42U | self-cleavage | 0.0875
U46A A78C | self-cleavage | 0.131
C3A G39U | self-cleavage | 0.0777
A51G C86G | self-cleavage | 0.702
G6C A8G | self-cleavage | 0.332
C41A A71C | self-cleavage | 0.499
A56U U69G | self-cleavage | 0.959
G1A A78C | self-cleavage | 0.0627
C24U U79A | self-cleavage | 0.208
C19U C57G | self-cleavage | 0.089
C19U A70C | self-cleavage | 0.0906
G1C U60A | self-cleavage | 0.237
U37A U69G | self-cleavage | 0.369
C13A U20A | self-cleavage | 0.0811
G55C C84A | self-cleavage | 1.07
C57G C64G | self-cleavage | 0.849
C63A A83C | self-cleavage | 0.271
G54A G80A | self-cleavage | 0.443
C13A A45U | self-cleavage | 0.128
C30A C44U | self-cleavage | 0.132
C19A G59A | self-cleavage | 0.125
G28A C62U | self-cleavage | 0.134
C49G A83U | self-cleavage | 0.35
C33A G35A | self-cleavage | 0.151
C64A G67U | self-cleavage | 0.425
G29U A45U | self-cleavage | 0
C57A C58U | self-cleavage | 1.05
G5U C22A | self-cleavage | 0.0415
G53U G55A | self-cleavage | 1.18
C24G G52C | self-cleavage | 0.172
C4G C32G | self-cleavage | 0
U69A G74C | self-cleavage | 0.297
G38A U46G | self-cleavage | 0.111
C21A C44U | self-cleavage | 0.0346
U65A G74U | self-cleavage | 0.428
C15A G59U | self-cleavage | 0.623
C3A G31A | self-cleavage | 0.0507
C44G C63G | self-cleavage | 0.441
U46C A83G | self-cleavage | 0.402
C13U G81A | self-cleavage | 0.189
G29C U47A | self-cleavage | 0.214
C21A C33U | self-cleavage | 0.0723
C24A A71U | self-cleavage | 0.731
U27C G39C | self-cleavage | 0.166
G1C G29A | self-cleavage | 0.0536
G31U G52C | self-cleavage | 0.35
C64G C66G | self-cleavage | 0.742
U27C A70C | self-cleavage | 0.604
G10C G31A | self-cleavage | 0.393
G6A G54U | self-cleavage | 0.819
G5U A8C | self-cleavage | 0.0875
U23G U72C | self-cleavage | 0.391
G29A G34A | self-cleavage | 0.131
G40U C63G | self-cleavage | 0.348
C26A G54A | self-cleavage | 0.79
C24G A42G | self-cleavage | 0.185
C4U G76U | self-cleavage | 0.831
C24G G53C | self-cleavage | 0.0817
C41A C49U | self-cleavage | 0.91
C36G U37A | self-cleavage | 0.446
G5C C84U | self-cleavage | 0.119
C13U C19U | self-cleavage | 0.0475
C7U C41G | self-cleavage | 0.225
A43G G74A | self-cleavage | 0.724
C48A C64U | self-cleavage | 0.923
A56C A70U | self-cleavage | 1.16
U79C G82U | self-cleavage | 0.256
C4G A78C | self-cleavage | 0.0923
G28U A83G | self-cleavage | 0.0569
C48G G55C | self-cleavage | 0.851
G67A A70G | self-cleavage | 0.712
G29A C64G | self-cleavage | 0.202
G54C A78G | self-cleavage | 0.507
C44G U46A | self-cleavage | 0.9
G34U U37A | self-cleavage | 0.158
G35A C86A | self-cleavage | 0.643
U12A G31C | self-cleavage | 0
U27G C61G | self-cleavage | 0.86
G68C A83C | self-cleavage | 0.332
G1A G80A | self-cleavage | 0.0455
G34A G39C | self-cleavage | 0.0707
C26G U65G | self-cleavage | 1.09
G40C G59C | self-cleavage | 0.229
C18U G34A | self-cleavage | 0.117

Values were extracted from the RNAGym collection of RNA variant scans (doi:10.7554/elife.80360).
